tested on: Stomach; experiment: Drug uptake in BALB/c mouse stomach implanted with mouse 4T1 cells assessed per gram of tissue at 0.18 mg/kg, ip after 6 hrs by HPLC-based fluorescence analysis; assay type: ADME, organism-based; conditions: in vivo
REPORTED PROPERTY: Drug uptake (ng/g)
Express your answer in ng/g, writing the number without its unit.

Find the recorded Drug uptake belonging to CN1CC2C3=N/C(=C(/c4c(F)c(F)c(S[C@@H]5O[C@H](CO)[C@@H](O)[C@H](O)[C@H]5O)c(F)c4F)C4=N/C(=C(/c5c(F)c(F)c(F)c(F)c5F)c5ccc([nH]5)/C(c5c(F)c(F)c(S[C@@H]6O[C@H](CO)[C@@H](O)[C@H](O)[C@H]6O)c(F)c5F)=C5/C=CC(=N5)C3c3c(F)c(F)c(F)c(F)c3F)C=C4)C2C1 (stereo partly specified) and report it.
48

* * *

test: Induction of reactive oxygen generation assessed as quantum yield of hydroxyl radical generation in O2 saturated PBS containing 1% DMSO under photoirradiation by spectrometry relative to control hematoporphyrin; type: physicochemical; conditions: buffer
REPORTED PROPERTY: Ratio
In your answer, state the number alone without any accompanying words.

Can you look up the measured Ratio of CN1CC2C3=N/C(=C(/c4c(F)c(F)c(S[C@@H]5O[C@H](CO)[C@@H](O)[C@H](O)[C@H]5O)c(F)c4F)C4=N/C(=C(/c5c(F)c(F)c(F)c(F)c5F)c5ccc([nH]5)/C(c5c(F)c(F)c(S[C@@H]6O[C@H](CO)[C@@H](O)[C@H](O)[C@H]6O)c(F)c5F)=C5/C=CC(=N5)C3c3c(F)c(F)c(F)c(F)c3F)C=C4)C2C1 (some centres undefined) for me?
1.2

So what does the record say about Ratio for CN1CC2C3=N/C(=C(/c4c(F)c(F)c(S[C@@H]5O[C@H](CO)[C@@H](O)[C@H](O)[C@H]5O)c(F)c4F)C4=N/C(=C(/c5c(F)c(F)c(S[C@@H]6O[C@H](CO)[C@@H](O)[C@H](O)[C@H]6O)c(F)c5F)c5ccc([nH]5)/C(c5c(F)c(F)c(S[C@@H]6O[C@H](CO)[C@@H](O)[C@H](O)[C@H]6O)c(F)c5F)=C5/C=CC(=N5)C3c3c(F)c(F)c(S[C@@H]5O[C@H](CO)[C@@H](O)[C@H](O)[C@H]5O)c(F)c3F)C=C4)C2C1 (some centres undefined) ?
1.1

Reported Ratio, molecule CC1=C(CCC(=O)O)c2cc3[nH]c(cc4nc(cc5[nH]c(cc1n2)c(C)c5C(C)O)C(C)=C4C(C)O)c(C)c3CCC(=O)O (centres undefined) : ____
1

// lookup Ratio for OC[C@H]1O[C@@H](Sc2c(F)c(F)c(/C3=C4\C=CC(=N4)C(c4c(F)c(F)c(F)c(F)c4F)C4=N/C(=C(/c5c(F)c(F)c(S[C@@H]6O[C@H](CO)[C@@H](O)[C@H](O)[C@H]6O)c(F)c5F)c5ccc([nH]5)/C(c5c(F)c(F)c(F)c(F)c5F)=C5/C=CC3=N5)C=C4)c(F)c2F)[C@H](O)[C@@H](O)[C@@H]1O (some centres undefined)
7.7

* * *

assay: Drug uptake in BALB/c mouse small intestine implanted with mouse 4T1 cells assessed per gram of tissue at 0.18 mg/kg, ip after 72 hrs by HPLC-based fluorescence analysis; assay type: ADME, organism-based; conditions: in vivo
REPORTED PROPERTY: Drug uptake (ng/g)
Number only, in ng/g; omit the unit.

Which measured Drug uptake value corresponds to CN1CC2C3=N/C(=C(/c4c(F)c(F)c(S[C@@H]5O[C@H](CO)[C@@H](O)[C@H](O)[C@H]5O)c(F)c4F)C4=N/C(=C(/c5c(F)c(F)c(F)c(F)c5F)c5ccc([nH]5)/C(c5c(F)c(F)c(S[C@@H]6O[C@H](CO)[C@@H](O)[C@H](O)[C@H]6O)c(F)c5F)=C5/C=CC(=N5)C3c3c(F)c(F)c(F)c(F)c3F)C=C4)C2C1 (stereo partly specified) ?
9.8
